Tested on: Escherichia coli TOP10;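 also: peptides expressed intracellularly from a pBAD plasmid library in pooled LB shake-flask culture, induced with 0.3% L-arabinose, DNA abundance read by NGS, three biological replicates, DESeq2 with apeglm shrinkage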
MEASUREMENT_DESCRIPTION: shrunken log2 fold change of peptide-encoding DNA abundance (4.5 h post-induction vs induction); higher = less antimicrobial activity (less host growth inhibition)
RUN_CONDITIONS: time post-induction: 4.5 h; library: site-saturation at positions 5, 18, 19, 20
Measured shrunken log2 fold change accompanies every entry in the list below.

SEQUENCE_ENTRY: RRIRCRPPRLPRPRPRPCCRPRP
shrunken log2 fold change: -0.106

SEQUENCE_ENTRY: RRIRARPPRLPRPRPRPPKNPRP
shrunken log2 fold change: 0.562

SEQUENCE_ENTRY: RRIRWRPPRLPRPRPRPLFSPRP
shrunken log2 fold change: 0.0976

SEQUENCE_ENTRY: RRIRTRPPRLPRPRPRPHVAPRP
shrunken log2 fold change: 0.268

SEQUENCE_ENTRY: RRIRSRPPRLPRPRPRPITSPRP
shrunken log2 fold change: -0.0517

SEQUENCE_ENTRY: RRIRYRPPRLPRPRPRPCYKPRP
shrunken log2 fold change: -0.0156

SEQUENCE_ENTRY: RRIRSRPPRLPRPRPRPYFSPRP
shrunken log2 fold change: -0.611

SEQUENCE_ENTRY: RRIRLRPPRLPRPRPRPTNRPRP
shrunken log2 fold change: 0.267

SEQUENCE_ENTRY: RRIRNRPPRLPRPRPRPHWYPRP
shrunken log2 fold change: -0.0582

SEQUENCE_ENTRY: RRIRNRPPRLPRPRPRPGFRPRP
shrunken log2 fold change: 0.114

SEQUENCE_ENTRY: RRIRQRPPRLPRPRPRPSPMPRP
shrunken log2 fold change: 0.0696

SEQUENCE_ENTRY: RRIRMRPPRLPRPRPRPHWTPRP
shrunken log2 fold change: -0.106

SEQUENCE_ENTRY: RRIRRRPPRLPRPRPRPSCDPRP
shrunken log2 fold change: 0.177

SEQUENCE_ENTRY: RRIRVRPPRLPRPRPRPAKKPRP
shrunken log2 fold change: 0.0179

SEQUENCE_ENTRY: RRIRCRPPRLPRPRPRPACLPRP
shrunken log2 fold change: -0.111

SEQUENCE_ENTRY: RRIRERPPRLPRPRPRPCLHPRP
shrunken log2 fold change: -0.0164

SEQUENCE_ENTRY: RRIRMRPPRLPRPRPRPKDQPRP
shrunken log2 fold change: 2.28

SEQUENCE_ENTRY: RRIRNRPPRLPRPRPRPLHSPRP
shrunken log2 fold change: -0.16

SEQUENCE_ENTRY: RRIRNRPPRLPRPRPRPLHPPRP
shrunken log2 fold change: 0.0757

SEQUENCE_ENTRY: RRIRDRPPRLPRPRPRPWWPPRP
shrunken log2 fold change: 0.0881

SEQUENCE_ENTRY: RRIRNRPPRLPRPRPRPDPCPRP
shrunken log2 fold change: -0.145

SEQUENCE_ENTRY: RRIRCRPPRLPRPRPRPDWNPRP
shrunken log2 fold change: -0.523

SEQUENCE_ENTRY: RRIRFRPPRLPRPRPRPWTGPRP
shrunken log2 fold change: -0.00822

SEQUENCE_ENTRY: RRIRCRPPRLPRPRPRPQLWPRP
shrunken log2 fold change: 0.366

SEQUENCE_ENTRY: RRIRFRPPRLPRPRPRPIWNPRP
shrunken log2 fold change: -0.147

SEQUENCE_ENTRY: RRIRDRPPRLPRPRPRPQMVPRP
shrunken log2 fold change: -0.0637

SEQUENCE_ENTRY: RRIRNRPPRLPRPRPRPHLEPRP
shrunken log2 fold change: 0.0549

SEQUENCE_ENTRY: RRIRRRPPRLPRPRPRPGELPRP
shrunken log2 fold change: 0.12

SEQUENCE_ENTRY: RRIRYRPPRLPRPRPRPIHQPRP
shrunken log2 fold change: -0.0218

SEQUENCE_ENTRY: RRIRPRPPRLPRPRPRPQTCPRP
shrunken log2 fold change: 0.111

SEQUENCE_ENTRY: RRIRVRPPRLPRPRPRPRTMPRP
shrunken log2 fold change: 0.0485

SEQUENCE_ENTRY: RRIRNRPPRLPRPRPRPLICPRP
shrunken log2 fold change: -0.771

SEQUENCE_ENTRY: RRIRYRPPRLPRPRPRPYHRPRP
shrunken log2 fold change: -0.236

SEQUENCE_ENTRY: RRIRNRPPRLPRPRPRPSLEPRP
shrunken log2 fold change: -0.208

SEQUENCE_ENTRY: RRIRHRPPRLPRPRPRPGHPPRP
shrunken log2 fold change: -0.00757

SEQUENCE_ENTRY: RRIRLRPPRLPRPRPRPINQPRP
shrunken log2 fold change: -0.321

SEQUENCE_ENTRY: RRIRDRPPRLPRPRPRPNSKPRP
shrunken log2 fold change: -0.506

SEQUENCE_ENTRY: RRIRMRPPRLPRPRPRPPSHPRP
shrunken log2 fold change: 0.622

SEQUENCE_ENTRY: RRIRWRPPRLPRPRPRPNLPPRP
shrunken log2 fold change: -0.101

SEQUENCE_ENTRY: RRIRIRPPRLPRPRPRPPFKPRP
shrunken log2 fold change: 0.228

SEQUENCE_ENTRY: RRIRRRPPRLPRPRPRPMDGPRP
shrunken log2 fold change: 0.0167

SEQUENCE_ENTRY: RRIRDRPPRLPRPRPRPLTDPRP
shrunken log2 fold change: 0.0638

SEQUENCE_ENTRY: RRIRARPPRLPRPRPRPWGYPRP
shrunken log2 fold change: -0.317

SEQUENCE_ENTRY: RRIRSRPPRLPRPRPRPTDKPRP
shrunken log2 fold change: -0.242

SEQUENCE_ENTRY: RRIRHRPPRLPRPRPRPRVLPRP
shrunken log2 fold change: -0.0249

SEQUENCE_ENTRY: RRIRARPPRLPRPRPRPKYHPRP
shrunken log2 fold change: -0.103

SEQUENCE_ENTRY: RRIRWRPPRLPRPRPRPQQCPRP
shrunken log2 fold change: 0.112

SEQUENCE_ENTRY: RRIRERPPRLPRPRPRPNHSPRP
shrunken log2 fold change: -0.594

SEQUENCE_ENTRY: RRIRYRPPRLPRPRPRPIMFPRP
shrunken log2 fold change: -1.35

SEQUENCE_ENTRY: RRIRWRPPRLPRPRPRPCVEPRP
shrunken log2 fold change: 0.153

SEQUENCE_ENTRY: RRIRTRPPRLPRPRPRPWVTPRP
shrunken log2 fold change: -0.117

SEQUENCE_ENTRY: RRIRERPPRLPRPRPRPLSSPRP
shrunken log2 fold change: 0.00508

SEQUENCE_ENTRY: RRIRIRPPRLPRPRPRPRIDPRP
shrunken log2 fold change: -0.0642

SEQUENCE_ENTRY: RRIRWRPPRLPRPRPRPVQKPRP
shrunken log2 fold change: 0.0836

SEQUENCE_ENTRY: RRIRRRPPRLPRPRPRPRLKPRP
shrunken log2 fold change: 0.231

SEQUENCE_ENTRY: RRIRIRPPRLPRPRPRPHGYPRP
shrunken log2 fold change: -0.714

SEQUENCE_ENTRY: RRIRVRPPRLPRPRPRPNRDPRP
shrunken log2 fold change: -0.0911

SEQUENCE_ENTRY: RRIRPRPPRLPRPRPRPRFDPRP
shrunken log2 fold change: 0.197

SEQUENCE_ENTRY: RRIRCRPPRLPRPRPRPDVEPRP
shrunken log2 fold change: -0.421

SEQUENCE_ENTRY: RRIRYRPPRLPRPRPRPEFLPRP
shrunken log2 fold change: -0.252

SEQUENCE_ENTRY: RRIRWRPPRLPRPRPRPNCQPRP
shrunken log2 fold change: -0.14

SEQUENCE_ENTRY: RRIRTRPPRLPRPRPRPNYGPRP
shrunken log2 fold change: -0.363

SEQUENCE_ENTRY: RRIRWRPPRLPRPRPRPPNKPRP
shrunken log2 fold change: 0.206
